- Read-out: BCL2L11 (gene 10018)
- run_description: LTEA_HepaRG_BCL2L11: Life Technologies and Expression Analysis (LTEA) Assay for Bcl-2 (BCL2L11) gene using HepaRG (AID 2283473)
- details: mRNA level, 48 h; actives raise or lower the signal
Calls of active or inactive are those of the source. Rule for the calls: active = hit-call score of the fitted dose curve at least 0.9, where 1 is the maximum; inactive = score below 0.9.
experimental_endpoint: outcome

CCNC(=O)NC(=O)C(C#N)=NOC = inactive
Nc1c(Cl)c(Cl)nc(C(=O)O)c1Cl = inactive
CN=C=S = inactive

###

- Read-out: Cytochrome P450 3A7 (Homo sapiens) (UniProt P24462)
- Sequence (P24462 whole entry, looked up): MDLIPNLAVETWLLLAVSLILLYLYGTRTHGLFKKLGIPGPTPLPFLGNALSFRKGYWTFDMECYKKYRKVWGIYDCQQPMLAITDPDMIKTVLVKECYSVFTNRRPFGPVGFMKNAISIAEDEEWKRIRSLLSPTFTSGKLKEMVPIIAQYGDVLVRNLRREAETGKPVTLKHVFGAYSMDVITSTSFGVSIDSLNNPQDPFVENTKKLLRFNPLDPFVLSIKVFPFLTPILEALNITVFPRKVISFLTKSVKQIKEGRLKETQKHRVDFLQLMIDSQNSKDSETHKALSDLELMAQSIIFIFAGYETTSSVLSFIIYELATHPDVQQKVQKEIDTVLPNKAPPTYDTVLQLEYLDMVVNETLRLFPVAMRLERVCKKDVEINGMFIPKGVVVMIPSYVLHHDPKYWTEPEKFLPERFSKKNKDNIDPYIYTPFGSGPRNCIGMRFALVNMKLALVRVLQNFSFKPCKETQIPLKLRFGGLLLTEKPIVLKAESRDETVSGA
- run_description: LTEA_HepaRG_CYP3A7: Life Technologies and Expression Analysis (LTEA) Assay for CYP3A7 using HepaRG (AID 2283492)
- details: mRNA level, 48 h; actives raise or lower the signal
Calls of active or inactive are those of the source. Rule for the calls: active = hit-call score of the fitted dose curve at least 0.9, where 1 is the maximum; inactive = score below 0.9.
Pick one and only one: T for active, F for inactive

CSC(=O)c1c(C(F)F)nc(C(F)(F)F)c(C(=O)SC)c1CC(C)C = T
CC1(C)C(C(=O)OC(C#N)c2cccc(Oc3ccccc3)c2)C1(C)C (stereo not given) = F
Cc1c(COC(=O)[C@@H]2[C@H](/C=C(\Cl)C(F)(F)F)C2(C)C)cccc1-c1ccccc1 = T
CCC(C)n1c(=O)[nH]c(C)c(Br)c1=O (stereo not given) = F
CC(C)(C)C(=O)C(Oc1ccc(Cl)cc1)n1cncn1 (stereo not given) = T
CCOc1cc(C(C)(C)C)ccc1C1COC(c2c(F)cccc2F)=N1 (stereo not given) = F

Could you kindly confirm the outcome this assay logged for COCC(=O)N(c1c(C)cccc1C)C(C)C(=O)OC (stereo not given) ?
F

Also need CCOC(=O)C(C)OC(=O)c1cc(Oc2ccc(C(F)(F)F)cc2Cl)ccc1[N+](=O)[O-] (stereo not given) , thanks.
T

Also need "O=P(O)(O)CCCl" , thanks.
F

Also need "Cc1cc(C)nc(Nc2ccccc2)n1" , thanks.
F

Also need CCCCC(C#N)(Cn1cncn1)c1ccc(Cl)cc1 (stereo not given) , thanks.
T

Also need "COC(=O)N(C(=O)N1CO[C@@]2(C(=O)OC)Cc3cc(Cl)ccc3C2=N1)c1ccc(OC(F)(F)F)cc1" , thanks.
T

Also need O=C1C2CC=CCC2C(=O)N1SC(Cl)(Cl)Cl (stereo not given) , thanks.
F

Also need "Cc1nc(N(C)C)nc(OC(=O)N(C)C)c1C" , thanks.
T

Also need "O=C(Nc1ccccc1-c1ccc(Cl)cc1)c1cccnc1Cl" , thanks.
F

###

- Read-out: sulfotransferase (SULT2A), SULT2A1 (gene 6822)
- run_description: CLD_SULT2A_48hr: CellzDirect (CLD) Gene Expression Assay for sulfotransferase (SULT2A) at 48 hours (AID 2283710);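 note: hits raise SULT2A1 transcript above the 0.2% DMSO vehicle baseline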
Records with an inconclusive call do not appear. Activity calls are given as the source filed them. Rule for the calls: active = hit-call score of the fitted dose curve at least 0.9, where 1 is the maximum; inconclusive = response in the unintended direction; inactive = score below 0.9.
Pick one and only one: active, inactive

Check out these entries, answers already filled in.
CSC(=O)c1c(C(F)F)nc(C(F)(F)F)c(C(=O)SC)c1CC(C)C = inactive
CCN(CC)C(=O)C(C)Oc1cccc2ccccc12 (configuration not stated) = active
CC(C)(C)C(=O)C(Oc1ccc(Cl)cc1)n1cncn1 (configuration not stated) = inactive
O=C(O)c1c(Cl)ccc2cc(Cl)cnc12 = inactive
CCNP(=S)(OC)O/C(C)=C/C(=O)OC(C)C (configuration not stated) = inactive
CC(C)=CC1C(C(=O)OCc2coc(Cc3ccccc3)c2)C1(C)C (configuration not stated) = inactive
COc1cc(OC)nc(NC(=O)NS(=O)(=O)c2ncccc2OCC(F)(F)F)n1 = inactive
N#Cc1c(Cl)cccc1Cl = inactive
CC(C)N1C(=O)c2ccccc2NS1(=O)=O = inactive
COc1ccc(-c2ccccc2)cc1NNC(=O)OC(C)C = inactive

Could you kindly confirm the outcome this assay logged for CCC(C)n1c(=O)[nH]c(C)c(Br)c1=O (configuration not stated) ?
inactive

Also need CCOC(=O)C(C)OC(=O)c1cc(Oc2ccc(C(F)(F)F)cc2Cl)ccc1[N+](=O)[O-] (configuration not stated) , thanks.
active

Also need CCCN(CC)CC1COC2(CCC(C(C)(C)C)CC2)O1 (configuration not stated) , thanks.
active
